Just for reference, patent US20250034594A1 is where these values come from.

# Editing Efficiency (Absolute, Average, two targets) listing for each entry below
# System: endogenous genome targets (ACTB, HSP90AA1)
# protocol-text: Arrayed SSAP library screening, mKate knock-in assay (editing efficiency)
# Assay type: cell-based
# protocol-conditions: percent of mKate knock-in; average of HSP90 and ACTB; 3 days after transfection
parameter: Editing Efficiency (Absolute, Average, two targets)

molecule | observed
SSAP_36: SEQ ID NO: 205 (protein) SSIAAAAESAEVTPASIINKYRDDIATVLPPKLRERIDRWIRLAIGAVNSNPELISRVRADQGASMMQALMKCAALGHEPGSGLFHLVPKGSRIEGWEDYKGILQRIDRSGVYARTVIGVVYANDEYSYDQNVDERPRHVRATGDRGEPISSYAYAVYPSGAITTVAEATPEQIASSKSKARGADNAASPWRAPGAPMHRKVAVRLLEKHVATSAEDRREPISRSAANDVVIDATADYYQEP | 15.8
SSAP_173: SEQ ID NO: 342; Tyzzerella nexilis (protein, listed as Tyzzerella nexilis) AGVKEELAKKAESTKGETKLTKSMSIADLIKAMEPEIKKALPEVITPERFTRMALSALNTTPKLRECTQMSFLAALMNAAQLGLEPNTPLGQAYLIPYNNKGVMECQFQIGYKGLIDLSYRNPQMQIISAQAVYENDDFSYELGLNPKLEHCPTLGERGEVRLFYGFFKLVNGGFGFEVMSKTAMDEYAKEYSKAFDSSFSPWKSNYIGMAKKTVIKQALKYAPLKTDFRKALSNDETIKTELSDDMSDIHGEEIWDVEYQEKTA | 11.55
SSAP_184: SEQ ID NO: 353; Streptomyces scabiei (protein, listed as Streptomyces scabiei) DADRMARIALTLIRKNPDLATCSGESFLGALMTCSQLGFEPGSPTQEAFIVPYKGEATFQLGYQGMVTLFYQHPMASSVKVETVRENDYFEHEEGLEEKLVHRPCKTGPRGKAIAYYSVARLINGGRTFKVMYPAEIEERREKLPSKNSPAWRNSYDEMAKKTVLRNHFKALPKSAELARAMAHDGTVRTDWQPDAIDVPPEYLSEPQRPELGTGSTQ | 14.075
SSAP_305: SEQ ID NO: 474 in b312 (Table 9 prints 424); Clostridium akagii (protein, listed as Clostridium akagii) ATSESLKNQLVNKETRPPKDPFKALVYSAGIKKRFEDMLDKQANGFITSLLNLKQDKLKSCDDFTVLGSALKAAALKLPIDPNLGFAWIIPFKNHGKLEAQFQIGYKGFIQMAQRSGQYKKLNVTEIYEGQLKSFNPLTEEIVLDLDNIKSDLRKINKRYLIVMRMNLLALHLRKISKG | 11.425
SSAP_192: SEQ ID NO: 361; Streptococcus pyogenes (protein, Streptococcus pyogenes) SDLSVAAAAAKTQPTMKDLVEAQLPAIERQLGGAMNSAAFVRAVLSEIGKSPDLMAADPKTLLGGVMLAAQLRLEIGSGLGEFYLTPRKERGRQICLPIIGYQGLIKLALRSEFVMNVQAFLVRQGDQFSYGANAERGMFYDWVPQDFEETRDWIGVVATARMRSGGTTWVYLTRTQVIDRRPSYWNSTPWKTNEDEMVKKTAVRALAKFLPKSTDLGRALEADEAKVQTLRGLDEVEVTRLDDEADTVVVQEQNPMSRTPEEQAEDAEAQR | 13.3
